# assay_target: cloned human dopamine D3 receptors (Homo sapiens)
# Construct: expressed in transfected cells; membrane homogenate
# test_name: [N-Methyl-3H]Spiroperidol binding to cloned human dopamine D3 receptors (Protocol 1)
# settings: the 17th table; read-out: D3 Ki
pKi: −log10 of the molar value.
Please note: 1 applies when pKi is 8 or greater, and -1 applies otherwise.

Completed entries (count: 2):
{"compound": "O=C(c1ccc(-c2ccccc2)cc1)N(Cc1ccccc1)CC1CC1CN1CCCN(c2csc3cc(F)ccc23)CC1 (racemic)", "qualitative_label": -1}
{"compound": "O=C(Cc1ccccc1)NC[C@@H]1CC1CN1CCCN(c2csc3cc(F)ccc23)CC1 (stereo partly shown) [compound 831204]", "qualitative_label": 1}

API: the following record is the query input.
Prompt: Check if pKi >= 8 (inclusive). Item: O=C(Cc1ccccc1)NC[C@@H]1CC1CN1CCCN(c2csc3cc(F)ccc23)CC1 (stereo partly shown) [compound 831203]
Response: 1

###

# assay_target: cloned human dopamine D3 receptors (Homo sapiens, UniProt P35462)
# Construct: expressed in transfected cells; membrane homogenate
# Sequence (P35462 whole entry): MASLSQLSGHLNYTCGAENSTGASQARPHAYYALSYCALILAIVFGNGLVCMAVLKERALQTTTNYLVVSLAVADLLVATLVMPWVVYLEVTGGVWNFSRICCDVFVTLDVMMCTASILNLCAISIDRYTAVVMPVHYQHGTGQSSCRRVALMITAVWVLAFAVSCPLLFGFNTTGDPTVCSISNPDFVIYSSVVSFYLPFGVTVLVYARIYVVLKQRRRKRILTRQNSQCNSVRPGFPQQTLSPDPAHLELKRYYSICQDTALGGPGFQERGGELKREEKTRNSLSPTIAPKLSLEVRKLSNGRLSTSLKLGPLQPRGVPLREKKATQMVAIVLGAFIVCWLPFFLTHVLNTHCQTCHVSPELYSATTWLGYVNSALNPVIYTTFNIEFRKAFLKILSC
# test_name: [N-Methyl-3H]Spiroperidol binding to cloned human dopamine D3 receptors (Protocol 1)
# settings: Table 2; read-out: D3K1
# From the text: [N-Methyl-^3H]Spiroperidol Binding to Cloned Human Dopamine D3 Receptors This assay measures the in vitro activity of compounds on cloned human dopamine (D3) receptors and predicts the direct dopamine-blocking properties of putative neuropsychiatric agents at human dopamine D3 receptors. The D3 gene was isolated from a human striatal cDNA library (Stratagene). The gene was sequenced and sub-cloned into the expression vector RC/RSV (Invitrogen). […]
measured_property: pKi
# pKi = -log10(concentration in molar units)

Example cases with answers are listed next.
{"molecule": "CSc1ncccc1C(=O)N[C@@H](CO)CCCN1CCN(c2csc3cc(C(F)(F)F)ccc23)CC1 [compound 815681]", "assay_target": "cloned human dopamine D3 receptors (Homo sapiens, UniProt P35462)", "measured_property": "pKi", "measured_result": 6.58}
{"molecule": "O=C(NCCCCCCN1CCN(c2csc3cc(C(F)(F)F)ccc23)CC1)c1cc2ccccc2[nH]1 [compound 816315]", "assay_target": "cloned human dopamine D3 receptors (Homo sapiens, UniProt P35462)", "measured_property": "pKi", "measured_result": 8.43}
{"molecule": "CN(C)c1ccc(C(=O)c2ccccc2C(=O)NCCCCN2CCCN(c3csc4cc(F)ccc34)CC2)cc1 [compound 817263]", "assay_target": "cloned human dopamine D3 receptors (Homo sapiens, UniProt P35462)", "measured_property": "pKi", "measured_result": 6.48}

// below: pKi requested for another molecule
Prompt: // fetch cloned human dopamine D3 receptors (Homo sapiens, UniProt P35462) pKi for O=C(N[C@@H](CO)CCCN1CCN(c2csc3cc(C(F)(F)F)ccc23)CC1)c1ccc(Br)cc1 [compound 815679]
Response: 6.89

###

# assay_target: cloned human dopamine D3 receptors (Homo sapiens)
# Construct: expressed in transfected cells; membrane homogenate
# test_name: [N-Methyl-3H]Spiroperidol binding to cloned human dopamine D3 receptors (Protocol 1)
# settings: read-out: D3K1
measured_property: log10 Ki (log10 of the value in nM)
// stored as log10 of Ki expressed in nM

Example cases with answers are listed next.
{"compound": "COc1cc(OC)cc(C(=O)NCCCCCCN2CCN(c3csc4cc(C(F)(F)F)ccc34)CC2)c1", "log10 Ki": 0.69}
{"compound": "O=C(NCCCCCN1CCN(c2csc3cc(C(F)(F)F)ccc23)CC1)c1ccc(OC(F)(F)F)cc1", "log10 Ki": 1.15}
{"compound": "O=C(NCCCCN1CCN(c2c(Cl)sc3cc(C(F)(F)F)ccc23)CC1)c1cccs1", "log10 Ki": 1.51}

Prompt: Consider the compound shown here: CC1(C)C(CNC(=O)c2ccc(F)cc2)C1CN1CCN(c2csc3cc(C(F)(F)F)ccc23)CC1 (stereo not shown) What is its recorded log10 Ki?
Response: 1.71
